# Assay remarks: Drug concentration in total heart in Wistar Han rat at 1 to 2 mg/kg, iv infused for 10 to 20 hrs by LC-MS/MS analysis
# Experimental context: in vivo
Measured property: Ct (ng/mL)

Compound	Measured property	Readout value
O=C(O)[C@@H]1CCN(C(=O)n2cnc(-c3ccc(-c4cnc(N5CCOCC5)nc4)cc3)n2)[C@@H](c2ccccc2)C1	Ct	80
Cc1nc2cc(-c3cc(F)cc(C#N)c3)ccc2s1	Ct	66
Cn1nc(C(=O)NCCN2CCOCC2)cc1-c1cc2ccccc2[nH]1	Ct	150
Cc1ccc(NC(=O)c2cc(Oc3ccc(S(C)(=O)=O)cc3)c3c(c2)OC(C)(C)C3)nc1	Ct	220
Oc1noc2cc(Cl)c(Cl)cc12	Ct	180

A: COc1ccc(-c2cc3c(S(=O)(=O)O)c[nH]c3cc2Cl)cc1
B: C[C@H]1COCCN1c1nc(-c2cnc(N)nc2)c2c(n1)N([C@@]1(C)CCN(C(=O)C(C)(C)N)C1)CC2
C: COc1cc2nc(N3CCN(C(=O)c4ccco4)CC3)nc(N)c2cc1OC [PRAZOSIN]
Query string: // smallest Ct at index 0, largest at the end Response format: the labels, sorted as the prompt asks.
Result string: A, C, B

* * *

# Assay remarks: Unbound tissue partition coefficient, ratio of drug level in skeletal muscle to plasma in Wistar Han rat at 1 to 2 mg/kg, iv infused for 10 to 20 hrs by LC-MS/MS analysis
# Experimental context: skeletal muscle/plasma
Measured property: Kp uu

1. O=C(NC1CCCC1)C1CCN(c2nc3cc(Cl)ccc3o2)CC1 0.61
2. Cc1nc2cc(-c3cc(F)cc(C#N)c3)ccc2s1 0.6
3. COc1ccc(-c2cc3c(S(=O)(=O)O)c[nH]c3cc2Cl)cc1 0.6
4. N#Cc1ccc(N2N=C(N3CCC(C(=O)N4CCC(O)CC4)CC3)C[C@H]2C2CCCC2)cc1Cl 0.59
5. CC(C)(O)CS(=O)(=O)c1ccc2c(c1)nc(C(C)(C)C)n2CC1CCOCC1 0.48
6. CC1(C)CN(CCC#N)C(=O)[C@@H]1Oc1ccc(C#N)c(C(F)(F)F)c1 0.48

* * *

# Assay remarks: Fraction unbound in Wistar Han rat skeletal muscle at 2 uM incubated for 6 hrs by equilibrium dialysis method
Measured property: fraction unbound at 6 h, 2 µM

Worked cases, answers included:
1) CN(C)C(=O)c1cc(CC(=O)O)ccc1NC(=O)c1ccccc1-c1ccc(C(F)(F)F)cc1 0.174
2) COCCCN1C[C@H](C)N(C(=O)N2Cc3c(NC(=O)c4ccccn4)n[nH]c3C2(C)C)C[C@H]1C 0.385
3) O=C(NC1CCCC1)C1CCN(c2nc3cc(Cl)ccc3o2)CC1 0.02
4) O=C(NC(c1ccccc1)c1ccccc1)C1CC1 0.0833
5) CC(C)C[C@H](Nc1ccc(C(=O)NCCC(=O)O)cn1)c1ccc(-c2ccc(C(F)(F)F)cn2)cc1 0.011
6) C[C@H](c1nc2cnc(N3CCC[C@@H](C(=O)N4CCCC4)C3)nc2[nH]1)n1cc(Cl)cn1 0.0901
7) CC(=O)NS(=O)(=O)c1ccc(Oc2ccc(F)c(Cl)c2)c(C(F)(F)F)c1 0.0581
8) O=C(c1cccc(N2CCNCC2)n1)N1CCC(c2ccccc2F)CC1 0.0483

A: Cn1nc(C(=O)NCCN2CCOCC2)cc1-c1cc2ccccc2[nH]1
B: COc1cc(/C=C2\CCCN([C@@H](C)c3ccc(F)cc3)C2=O)ccc1-n1cnc(C)c1
C: CS(=O)(=O)c1cccc(C(=O)O)c1
D: O=c1[nH]c(=S)n(CCO)c2cc[nH]c12
E: C[C@H](CN1CCOCC1)n1/c(=N\C(N)=O)[nH]c2cc(/C=C3\c4ccccc4COc4cc(F)ccc43)ccc21
Query string: Task for the reader: rank each entry by its fraction unbound at 6 h, 2 µM, from the minimum upward. List the labels in the requested order.
Result string: E, B, A, D, C

a: CN1CC[C@H](c2c(O)cc(O)c3c(=O)cc(-c4ccccc4Cl)oc23)[C@H](O)C1
b: O=C(O)[C@@H]1CCN(C(=O)n2cnc(-c3ccc(-c4cnc(N5CCOCC5)nc4)cc3)n2)[C@@H](c2ccccc2)C1
Query string: Could you point out whether the larger fraction unbound at 6 h, 2 µM belongs to a or to b ? State the label of the item chosen.
Result string: a
(a: 0.033, b: 0.017)
